// data source = patent US10919877B2

target: PI3Kα (Homo sapiens); construct: purchased Life Technologies (assay run by the vendor); test: PI3K subtype enzyme inhibition; assay type: biochemical; details: read-out: PI3K Subtype Enzyme Inhibition Data IC50 PI3Kα
value-kind: pIC50
One number for each entry, as −log10 of the molar value.

Use these answered entries as a reference point.
>>> recorded_result("NCCNc1nc(N2CCOCC2)nc(-n2c(C(F)F)nc3ccccc32)n1 [ST-177]")
6.53
>>> recorded_result("CN(CCOCCOCCONC(=O)c1ccc(F)c(F)c1Nc1ccc(I)cc1F)CCN(C)CCOCCOCCC(=O)N1CCN(c2nc(N3CCOCC3)nc(-n3c(C(F)F)nc4ccccc43)n2)CC1 [ST-180]")
7.41
>>> recorded_result("COCCNc1nc(N2CCOCC2)nc(-n2c(C(F)F)nc3ccccc32)n1 [ST-178]")
7.70

Okay, here is my list. What is pIC50 for each of these?
1. CC(=O)NCCNc1nc(N2CCOCC2)nc(-n2c(C(F)F)nc3ccccc32)n1 [ST-5-22]
2. O=C(O)CCNc1nc(N2CCOCC2)nc(-n2c(C(F)F)nc3ccccc32)n1 [ST-5-25]
3. O=C(NOCCOCCOCCOCCC(=O)N1CCN(c2nc(N3CCOCC3)nc(-n3c(C(F)F)nc4ccccc43)n2)CC1)c1ccc(F)c(F)c1Nc1ccc(I)cc1F [ST-168]

*A*
[7.78, 7.91, 7.16]

*Q* Need pIC50, item CNC(=O)CCNc1nc(N2CCOCC2)nc(-n2c(C(F)F)nc3ccccc32)n1 [ST-5-21]
*A* 7.70

###

target: PI3Kα (Homo sapiens, UniProt P42336); construct: purchased Life Technologies (assay run by the vendor); assay: PI3K subtype enzyme inhibition; type: biochemical; settings: read-out: PI3K Subtype Enzyme Inhibition Data IC50 PI3Kα
Sequence (P42336 whole entry): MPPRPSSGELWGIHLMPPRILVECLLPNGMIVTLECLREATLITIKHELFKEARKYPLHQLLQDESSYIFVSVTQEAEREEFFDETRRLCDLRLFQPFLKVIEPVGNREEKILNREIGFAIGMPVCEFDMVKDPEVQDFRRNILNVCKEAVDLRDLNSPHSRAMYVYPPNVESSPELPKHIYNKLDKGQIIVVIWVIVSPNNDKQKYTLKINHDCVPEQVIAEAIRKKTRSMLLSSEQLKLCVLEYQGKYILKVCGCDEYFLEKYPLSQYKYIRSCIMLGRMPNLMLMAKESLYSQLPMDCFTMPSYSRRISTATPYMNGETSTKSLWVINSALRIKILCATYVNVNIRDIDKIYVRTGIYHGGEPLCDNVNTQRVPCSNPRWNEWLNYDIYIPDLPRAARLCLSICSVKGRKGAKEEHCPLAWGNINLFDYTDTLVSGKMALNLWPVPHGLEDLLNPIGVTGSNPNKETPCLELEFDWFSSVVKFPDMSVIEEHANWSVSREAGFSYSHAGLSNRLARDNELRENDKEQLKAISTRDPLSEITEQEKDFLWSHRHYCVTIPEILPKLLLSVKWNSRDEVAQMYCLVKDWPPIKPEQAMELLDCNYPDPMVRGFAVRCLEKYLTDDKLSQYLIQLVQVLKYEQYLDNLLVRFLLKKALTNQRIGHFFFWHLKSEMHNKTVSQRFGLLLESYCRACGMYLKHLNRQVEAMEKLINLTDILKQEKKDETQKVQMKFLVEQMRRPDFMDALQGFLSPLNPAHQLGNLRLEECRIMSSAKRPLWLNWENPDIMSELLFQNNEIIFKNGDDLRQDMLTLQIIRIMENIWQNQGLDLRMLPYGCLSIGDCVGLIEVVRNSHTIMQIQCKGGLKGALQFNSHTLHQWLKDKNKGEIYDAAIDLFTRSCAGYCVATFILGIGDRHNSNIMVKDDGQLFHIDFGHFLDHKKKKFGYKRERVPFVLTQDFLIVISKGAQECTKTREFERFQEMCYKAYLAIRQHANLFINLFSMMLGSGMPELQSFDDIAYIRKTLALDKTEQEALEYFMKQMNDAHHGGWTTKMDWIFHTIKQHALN
Sequence (P27986 whole entry partner): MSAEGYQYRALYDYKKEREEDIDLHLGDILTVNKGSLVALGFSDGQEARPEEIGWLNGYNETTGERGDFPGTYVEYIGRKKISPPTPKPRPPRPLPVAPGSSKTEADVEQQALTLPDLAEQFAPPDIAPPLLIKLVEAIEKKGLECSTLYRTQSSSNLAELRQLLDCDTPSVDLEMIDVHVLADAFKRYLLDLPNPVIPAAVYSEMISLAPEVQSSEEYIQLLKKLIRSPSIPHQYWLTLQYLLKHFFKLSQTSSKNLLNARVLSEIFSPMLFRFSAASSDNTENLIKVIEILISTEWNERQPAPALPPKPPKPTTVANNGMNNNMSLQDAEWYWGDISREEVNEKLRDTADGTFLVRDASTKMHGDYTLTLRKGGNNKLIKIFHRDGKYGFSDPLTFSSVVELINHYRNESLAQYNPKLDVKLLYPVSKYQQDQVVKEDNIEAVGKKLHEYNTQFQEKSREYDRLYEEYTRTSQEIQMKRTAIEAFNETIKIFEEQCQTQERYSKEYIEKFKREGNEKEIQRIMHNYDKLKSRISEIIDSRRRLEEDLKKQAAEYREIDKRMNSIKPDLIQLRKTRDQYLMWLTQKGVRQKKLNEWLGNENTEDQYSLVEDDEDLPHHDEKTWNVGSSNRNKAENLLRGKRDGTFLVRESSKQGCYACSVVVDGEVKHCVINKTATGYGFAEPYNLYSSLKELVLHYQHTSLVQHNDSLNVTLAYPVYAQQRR
value-kind: IC50 (nM)
One number for each entry, in nM.

>>> recorded_result("OCCNc1nc(N2CCOCC2)nc(-n2c(C(F)F)nc3ccccc32)n1 [ST-187]")
9.9
>>> recorded_result("CN(CCOCCOCCONC(=O)c1ccc(F)c(F)c1Nc1ccc(I)cc1F)CC[N+](C)(C)CCOCCOCCC(=O)N1CCN(c2nc(N3CCOCC3)nc(-n3c(C(F)F)nc4ccccc43)n2)CC1 [ST-5-05]")
39

*Q* Any idea what its IC50 is? The compound is CNCCNc1nc(N2CCOCC2)nc(-n2c(C(F)F)nc3ccccc32)n1 [ST-5-02]
*A* 248

###

biological target: PI3Kα (Homo sapiens, UniProt P42336); construct: purchased Life Technologies (assay run by the vendor); test: PI3K subtype enzyme inhibition; assay type: biochemical; settings: read-out: PI3Kα IC50
Please respond with reported IC50 for every item in the list.

>>> recorded_result("O=C(NOCCOCCOCCOCCC(=O)N1CCN(c2cnc3ccc(-c4cnc(Cl)c(NS(=O)(=O)c5ccc(F)cc5)c4)cc3n2)CC1)c1ccc(F)c(F)c1Nc1ccc(I)cc1F [ST-182]")
"2 nM"
>>> recorded_result("NOCCOCCOCCOCCC(=O)N1CCN(c2cnc3ccc(-c4cnc(Cl)c(NS(=O)(=O)c5ccc(F)cc5)c4)cc3n2)CC1 [ST-5-29]")
"< 0.495 nM"
>>> recorded_result("CC(=O)N1CCN(c2cnc3ccc(-c4cnc(Cl)c(NS(=O)(=O)c5ccc(F)cc5)c4)cc3n2)CC1 [ST-5-28]")
"< 0.495 nM"

For the next question, use this compound.
*Q* # input compound: O=S(=O)(Nc1cc(-c2ccc3ncc(N4CCNCC4)nc3c2)cnc1Cl)c1ccc(F)cc1 [ST-5-27] ; wanted: its IC50
*A* < 0.495 nM
